Listing of recorded IC50 by entry.
# Tested on: HTC-C3;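 also: inhibition of cell growth, read out with a cell viability assay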
# test.details: cells
# Type: functional, cell-based, Homo sapiens
# run.conditions: Homo sapiens, HTC-C3
# Description: SANGER: Inhibition of human HTC-C3 cell growth in a cell viability assay.
Report the value in nM with no unit label.

molecule	measurement.units	assay.result
C=CCNC1=C2C[C@@H](C)C[C@H](OC)[C@H](O)[C@@H](C)/C=C(\C)[C@H](OC(N)=O)[C@@H](OC)/C=C\C=C(/C)C(=O)NC(=CC1=O)C2=O [TANESPIMYCIN]	nM	265

Let's switch to this molecule now.
q: IC50 for Cn1cncc1[C@@](N)(c1ccc(Cl)cc1)c1ccc2c(c1)c(-c1cccc(Cl)c1)cc(=O)n2C [TIPIFARNIB] ?
a: 4830

====

# System: NCI-H1963;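 also: cell growth inhibition of the human line, determined with a cell viability assay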
# test.details: cells
# Assay type: functional, cell-based
# run.conditions: Homo sapiens
# Description: SANGER: Inhibition of human NCI-H1963 cell growth in a cell viability assay.
assay.endpoint: pIC50
Entry type: numeric. Quantity: pIC50, the -log10 of concentration in molar units.

The examples below pair each entry with its known result.
compound	system.name	pIC50
COc1cc([C@@H]2c3cc4c(cc3[C@@H](O[C@@H]3O[C@@H]5CO[C@@H](C)O[C@H]5[C@H](O)[C@H]3O)[C@H]3COC(=O)[C@H]23)OCO4)cc(OC)c1O [ETOPOSIDE]	NCI-H1963	4.92
CCC1=C[C@@H]2CN(C1)Cc1c([nH]c3ccccc13)[C@@](C(=O)OC)(c1cc3c(cc1OC)N(C)[C@H]1[C@@](O)(C(=O)OC)[C@H](OC(C)=O)[C@]4(CC)C=CCN5CC[C@]31[C@@H]54)C2	NCI-H1963	7.52

Note: attention shifts to another entry.
q: Lookup: pIC50 / NCI-H1963 / "Cc1cc(Nc2cc(N3CCN(C)CC3)nc(Sc3ccc(NC(=O)C4CC4)cc3)n2)n[nH]1"
a: 5.77

====

# Tested on: HCC1806
# test.details: cells
# Assay type: functional, cell-based, Homo sapiens
# run.conditions: Homo sapiens, HCC1806
# Description: SANGER: Inhibition of human HCC1806 cell growth in a cell viability assay.
pIC50: −log10 of the molar value.
assay.endpoint: pIC50

# count of solved cases: 3
In [3]: df
Out[3]:
                              smiles_record  assay_endpoint  assay_result
0  C[C@]1(O)C[C@@H](c2nc(-c3ccc4ccc(-c5ccccc5)nc4c3)c3c(N)nccn32)C1           pIC50        < 5.59
1  CN(C)C/C=C/C(=O)Nc1cc2c(Nc3ccc(F)c(Cl)c3)ncnc2cc1O[C@H]1CCOC1           pIC50        < 6.30
2  Cn1cncc1[C@@](N)(c1ccc(Cl)cc1)c1ccc2c(c1)c(-c1cccc(Cl)c1)cc(=O)n2C           pIC50          4.92

Moving on to another molecule below.
q: Sample "O=C(NOCC1CC1)c1ccc(F)c(F)c1Nc1ccc(I)cc1Cl" — what was its pIC50?
a: < 5.00

====

Parameter IC50: see the listing below.
# Test system: Caov-4
# test.details: cells
# Assay type: functional, cell-based
# run.conditions: Homo sapiens
# Description: SANGER: Inhibition of human Caov-4 cell growth in a cell viability assay.

Reference set, count: 2
compound	IC50
Cc1cc([C@@H](C)Nc2ccccc2C(=O)O)c2nc(N3CCOCC3)cc(=O)n2c1	> 5.12 µM
Cc1cnc(-c2cnc(NCCNc3ccc(C#N)cn3)nc2-c2ccc(Cl)cc2Cl)[nH]1	> 2.56 µM

Now consider the entry below.
q: Query: IC50; subject: COc1cc([C@@H]2c3cc4c(cc3[C@@H](O[C@@H]3O[C@@H]5CO[C@@H](C)O[C@H]5[C@H](O)[C@H]3O)[C@H]3COC(=O)[C@H]23)OCO4)cc(OC)c1O [ETOPOSIDE]
a: > 16 µM
